Target: Tyrosine-protein kinase SYK (Homo sapiens)
Assay: Inhibition of SYK (unknown origin)
QUANTITY KIND: IC50 (nM)

Below: 2 compounds and their reported IC50.
>>> observed("Cc1cc(N)c2cc(Nc3nc(Nc4ccc(N5CCN(C)CC5)cc4)ncc3F)ccc2n1")
13
>>> observed("COc1cc(Nc2ncc(F)c(Nc3cc(Cl)ccc3C(N)=O)n2)cc(OC)c1OC")
326

I: COc1cc(Nc2ncc(F)c(Nc3ccc4nc(C)cc(N)c4c3)n2)cc(OC)c1OC
II: COc1cc(Nc2ncc(F)c(Nc3cccc(C(N)=O)c3)n2)cc(OC)c1OC
Of I versus II , which is the one with smaller reported IC50? In your reply, give the label of the chosen option. II
